Target: human TAAR1 receptor (Homo sapiens (Human))
Sequence (Q96RJ0 whole entry): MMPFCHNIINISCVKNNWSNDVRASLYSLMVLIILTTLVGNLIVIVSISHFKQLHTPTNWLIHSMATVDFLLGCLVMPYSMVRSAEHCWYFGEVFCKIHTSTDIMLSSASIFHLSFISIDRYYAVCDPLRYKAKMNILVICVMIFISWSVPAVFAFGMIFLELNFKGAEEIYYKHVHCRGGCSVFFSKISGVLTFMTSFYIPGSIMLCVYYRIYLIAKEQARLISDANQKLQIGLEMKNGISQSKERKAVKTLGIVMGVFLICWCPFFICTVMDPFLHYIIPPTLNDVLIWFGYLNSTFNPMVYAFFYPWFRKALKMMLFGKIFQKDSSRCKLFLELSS
Experiment: Evaluation of agonist activity on human TAAR1 receptor (cAMP assay)
Assay type: cell-based
Details: CHO, 0.5 h, 1000 nM; cAMP in human TAAR1-expressing CHO cells; relative to 100 μM tyramine; read-out: TAAR1 agonist activity at each concentration (%)
Counter-ions that a name gives are not always drawn.
The following compounds are shown together with reported activation at 1 µM values.
Answer in %, number only, no unit symbol.

Completed entries (count: 8):
C[C@H]1Oc2cc(F)cnc2[C@@H]1CN [Example 8, dihydrochloride] | 63
C[C@H]1Sc2cccnc2[C@@H]1CN (racemic) | 67
Cc1ccc2c(n1)[C@H](CN)C1(CC1)O2 (single isomer, unassigned) [Example 101, dihydrochloride] | 79
CC[C@H]1COc2cccnc2[C@@H]1CN (racemic) | 8
C[C@H]1COc2cccnc2[C@H]1CN (stereo in doubt) [Example 3, dihydrochloride] | 1
NC[C@H]1C[C@@H](c2ccccc2)Oc2cccnc21 (racemic) | 71
CCNC[C@H]1c2ncccc2O[C@@H]1C | 46
C[C@H]1Oc2c(F)ccnc2[C@@H]1CN | 65

Give recorded activation at 1 µM. C[C@@H]1C[C@@H](CN)c2ncc(F)cc2O1
66
